- Tested on: RARb homodimer (NR concentration 270 nM)
- test: PBM binding z-score (relative to random genomic background probes); higher = stronger binding; sequences stand for … in GC…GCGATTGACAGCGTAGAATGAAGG

monomerSequence	PBM binding z-score
CCGAGTCGGTTATGGGGCATTCAGGCAACGGTGA	0.462
CCTCGGAGGACAGAAAGTCAGAGCTGTCCGCTTT	-0.167
GATACAGGGTCAGCTAGAGGCCATAGTATGGAAA	3.52
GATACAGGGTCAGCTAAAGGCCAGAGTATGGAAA	3.61
AATACAGGGTCACTAGGCCAGCGTAGGTACGAAT	3.58
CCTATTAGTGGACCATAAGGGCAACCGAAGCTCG	1.53
CGTCCAAGGTCAATGCTAGGGCAGTGAAAGCATT	4.25
CGTCAAGGTTCAAGGTAACGTAACAGAAAGCAGC	1.73
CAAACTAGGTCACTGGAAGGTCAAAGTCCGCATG	5.21
CCTACAGGGCCATCAGGTCATTGATATCAACGTT	2.75
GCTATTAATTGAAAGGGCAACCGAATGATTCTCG	1.96
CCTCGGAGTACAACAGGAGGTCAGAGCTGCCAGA	2.99
TGAATGTGGTTATAAGATCAGGGAACGTTGCAAA	0.38
ATATTTAGGTTACATCCGGGTCATTCAGGCTATG	3.1
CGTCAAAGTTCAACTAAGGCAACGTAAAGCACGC	4.17
ATATGTAGGTTACATCCGGGTGATTCAGGCTATG	0.887
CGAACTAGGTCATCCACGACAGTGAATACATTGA	2.85
TTACGAAGGTGAAGGTCGTTGATCCCTCTGTAGA	1.84
TATACAGGGTCAAAAGCCAGAGTACGAATGTCGA	2.74
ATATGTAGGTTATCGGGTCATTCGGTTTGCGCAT	2.88
GCTGCTAGGTCAGGTGGGTCAGCTAACGGGTACG	3.64
CCTACTGGGGCATCAGGTCATTGATATCAACGTT	2.89
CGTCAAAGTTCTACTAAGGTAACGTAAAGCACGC	0.428
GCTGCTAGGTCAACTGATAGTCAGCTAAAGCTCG	3.15
GCTAGTTGGTCAGTAAAAGTTCACACACCGGTCG	3.69
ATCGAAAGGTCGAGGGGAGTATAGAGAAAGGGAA	2.84
